Documented log10 of microsomal CLint across a set of compounds
assay: Metabolic stability in human liver microsomes assessed as intrinsic clearance; assay type: ADME, Microsome; conditions: read-out: CLH
measured_attribute: log10 of microsomal CLint (log10 of the value in µL/min/mg)

>>> print(df.to_string())
                                   compound  number
0  C[C@@]1(c2cc(NC(=O)c3cnc(OCF)cn3)ccc2F)CCC(F)(F)C(N)=N1    1.00
1  NC1=N[C@@]2(c3cc(NC(=O)c4cnc(OCF)cn4)ccc3F)CCOC[C@H]2CC1(F)F (racemic)    1.55
2  C[C@H]1C[C@H]2CC(F)(F)C(N)=N[C@@]2(c2cc(NC(=O)c3cnc(OCF)cn3)ccc2F)CO1    2.08
3  NC1=N[C@@]2(c3cc(NC(=O)c4cnc(OCF)cn4)ccc3F)CO[C@@H](CF)C[C@H]2CC1(F)F    1.40
4  NC1=N[C@@]2(c3cc(NC(=O)c4cnc(OCF)cn4)ccc3F)COCC[C@H]2CC1(F)F (racemic)    1.66

----------
experiment: Efflux ratio of apparent permeability across basolateral to apical over apical to basolateral side in MDCK cells; format: ADME, cell-based, Canis lupus familiaris; details: dog
Recorded efflux ratio by entry
measured_attribute: efflux ratio

>>> df
                                   molecule  number
0  C[C@@]1(c2cc(NC(=O)c3cnc(OCF)cn3)ccc2F)CCC(F)(F)C(N)=N1     2.1
1  NC1=N[C@@]2(c3cc(NC(=O)c4cnc(OCF)cn4)ccc3F)CCOC[C@H]2CC1(F)F (racemic)     8.4
2  C[C@H]1C[C@H]2CC(F)(F)C(N)=N[C@@]2(c2cc(NC(=O)c3cnc(OCF)cn3)ccc2F)CO1       5
3  NC1=N[C@@]2(c3cc(NC(=O)c4cnc(OCF)cn4)ccc3F)CO[C@@H](CF)C[C@H]2CC1(F)F      12
4  NC1=N[C@@]2(c3cc(NC(=O)c4cnc(OCF)cn4)ccc3F)COCC[C@H]2CC1(F)F (racemic)     4.7

----------
Recorded log10 IC50, one value per entry.
target: Beta-secretase 1 (Homo sapiens, UniProt P56817); assay: Inhibition of BACE1 (unknown origin)
Sequence (P56817 whole entry): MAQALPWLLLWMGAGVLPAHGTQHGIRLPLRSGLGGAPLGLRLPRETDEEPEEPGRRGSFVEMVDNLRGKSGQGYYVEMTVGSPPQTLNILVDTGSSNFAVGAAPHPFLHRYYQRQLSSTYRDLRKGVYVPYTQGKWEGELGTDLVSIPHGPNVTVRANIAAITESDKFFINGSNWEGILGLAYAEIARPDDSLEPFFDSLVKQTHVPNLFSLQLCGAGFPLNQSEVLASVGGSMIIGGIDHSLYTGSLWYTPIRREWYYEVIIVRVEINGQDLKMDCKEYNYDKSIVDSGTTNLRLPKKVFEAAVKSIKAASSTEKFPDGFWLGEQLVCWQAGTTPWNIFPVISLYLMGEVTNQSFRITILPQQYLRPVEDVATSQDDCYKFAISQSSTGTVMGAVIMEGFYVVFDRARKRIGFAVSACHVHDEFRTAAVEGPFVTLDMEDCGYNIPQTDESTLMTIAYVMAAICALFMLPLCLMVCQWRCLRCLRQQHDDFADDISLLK
measured_attribute: log10 IC50 (log10 of the value in nM)

                                   molecule  measured_attribute  number
0  C[C@@]1(c2cc(NC(=O)c3cnc(OCF)cn3)ccc2F)CCC(F)(F)C(N)=N1          log10 IC50    1.06
1  NC1=N[C@@]2(c3cc(NC(=O)c4cnc(OCF)cn4)ccc3F)CCOC[C@H]2CC1(F)F (racemic)          log10 IC50    1.90
2  NC1=N[C@@]2(c3cc(NC(=O)c4cnc(OCF)cn4)ccc3F)COCC[C@H]2CC1(F)F (racemic)          log10 IC50    0.54
3  NC1=N[C@@]2(c3cc(NC(=O)c4cnc(OCF)cn4)ccc3F)CO[C@@H](CF)C[C@H]2CC1(F)F          log10 IC50    0.40
4  C[C@H]1C[C@H]2CC(F)(F)C(N)=N[C@@]2(c2cc(NC(=O)c3cnc(OCF)cn3)ccc2F)CO1          log10 IC50    0.18
5  NC1=N[C@](CF)(c2cc(NC(=O)c3cnc(OCF)cn3)ccc2F)CCC1(F)F          log10 IC50    0.95
